// reported GI50 per item
Tested on: DMS-114
Test: NCI tumour cell line growth inhibition, 48 h
Active and inactive are the calls of the source. Rule as the data show it: active = GI50 up to about 1.1 µM and inactive = higher.
Parameter: GI50

Compound | Tested system | Recorded value
CC(=O)NC1C(=O)CC(c2ccccc2)N(C)C1c1ccccc1 (centres undefined) | DMS-114 | > 100 µM (inactive)
CCc1cccc(C)c1NC(=O)CC(=O)NNC(N)=S | DMS-114 | > 100 µM (inactive)
CN1C(c2ccccc2)CC(=NOCc2ccccc2)CC1c1ccccc1 (centres undefined) | DMS-114 | 17.7 µM (inactive)
COc1ccc(NC(=O)CC(=O)n2nc(-c3ccccc3)c(/N=N/c3ccccc3C)c2-c2ccccc2)cc1 | DMS-114 | 24.3 µM (inactive)

====

Test system: OVCAR-5
Assay: NCI tumour cell line growth inhibition, 48 h
Active and inactive are the calls of the source. Cut-off read from the data, not from the text of the source: active = GI50 up to about 1.1 µM and inactive = higher.
// reported GI50 per item
Parameter: GI50

Structure notation | Recorded value
O=C1NC(=S)NC(=O)C1=Cc1ccc([N+](=O)[O-])o1 | 20.3 µM (inactive)
Cc1cc(N(CCCl)CCCl)ccc1/C=N/NC(=O)Cc1cc(=O)oc2cc(O)ccc12 | 31.6 µM (inactive)
Cc1ccsc1/C=N/Nc1nc2ccccc2s1 | 40.9 µM (inactive)
CSc1ccc(/C=C/C(=O)c2nc3ccccc3[nH]2)cc1 | 25.2 µM (inactive)
CCn1c2c(c3c(C(=O)OC)c(O)ccc31)C(=O)c1ccccc1C2=O | 18.4 µM (inactive)

====

Test system: NCI-H226
Test: NCI tumour cell line growth inhibition, 48 h
Active and inactive are the calls of the source. Rule as the data show it: active = GI50 up to about 1.1 µM and inactive = higher.

Molecule | GI50
O=[N+]([O-])c1ccc(/C=C/c2csnn2)cc1 | > 100 µM (inactive)
CC1C(C#N)(C#N)C(C#N)=C(N)C1(Cl)[N+](=O)[O-] (stereo not given) | 17.1 µM (inactive)
C=C(C(=O)OC)[C@@H]1C[C@@H](OC(C)=O)C2=C[C@H](C[C@@]3(C)O[C@@H]3C3=CC(C)=C(O3)[C@H]1OC(C)=O)OC2=O [BIPINNATIN I] | 90.8 µM (inactive)
CC1(C)CN=C(Nc2ccc(Cl)cc2)S1 | > 100 µM (inactive)
CCN(CC)CCSc1c2ccccc2nc2cc(NCC(=O)Nc3ccccc3-c3ccccc3NC(=O)CNc3ccc4c(SCCN(CC)CC)c5ccccc5nc4c3)ccc12 | > 100 µM (inactive)
COC(=O)c1c2c(cc3c1CC1(Cc4cc5c(c(C=O)c4C1)CCCC5)C3)CCCC2 (stereo not given) | 80 µM (inactive)
C=C(C)[C@@H]1CCC2=C[C@H](OC2=O)[C@@]2(C)C[C@@H]2C(=O)/C=C(/C)C(=O)[C@H]1OC(C)=O | 23.9 µM (inactive)
CC(C)(C)CN1[C@@H]2CCCC[C@H]2N(CC(C)(C)C)P1(=O)C(O)/C=C/c1ccccc1 (stereo not given in full) | 22.7 µM (inactive)
CCOC(=O)C(=O)C(=O)NN(C)C1=NCCN1 | > 100 µM (inactive)
O=c1[nH]nc(Cc2ccccc2)n1C1CC1 | > 100 µM (inactive)

====

// reported GI50 per item
Tested on: SN12C
Experiment: NCI tumour cell line growth inhibition, 48 h
Calls of active or inactive are those of the source. Cut-off read from the data, not from the text of the source: active = GI50 up to about 1.1 µM and inactive = higher.

Compound | GI50
OC1CN2Cc3cc4c(cc3[C@]13C=C[C@@H](O)CC23)OCO4 (stereo partly drawn) | 25.1 µM (inactive)
NC(Cc1ccc(OCc2ccccc2)cc1)C(=O)NC(Cc1ccccc1)C(=O)Oc1c(Cl)c(Cl)c(Cl)c(Cl)c1Cl (stereo not drawn) | 17.3 µM (inactive)
C[C@]1(S(=O)(=O)c2ccccc2)C[C@H]2N(Cc3ccccc3)[C@@H]1CCC21OCCO1 | > 100 µM (inactive)
Cc1cc(=O)n2nc(CSc3nnc(S)s3)sc2n1 | > 100 µM (inactive)
O=C(COc1ccc2c(=O)cc(-c3ccccc3)oc2c1)N1CCN(c2ccccc2)CC1 | 41.4 µM (inactive)
COc1cccc(/C=C(\NC(C)=O)c2nc3cc(Cl)ccc3[nH]2)c1 | > 100 µM (inactive)
CC(C)C[C@@H](NC(=O)[C@@H](Cc1cccc2ccccc12)NC(=O)N1CCOCC1)B(O)O | 96.2 µM (inactive)
O=C(O)CC(NC(=O)/C(=C/c1ccccc1)NC(=O)c1ccccc1)C(=O)O (stereo not drawn) | > 100 µM (inactive)
CC1C(C#N)(C#N)C(C#N)=C(N)C1(C)[N+](=O)[O-] (stereo not drawn) | 58.2 µM (inactive)
[O-][S@@+]1c2ccc3ccccc3c2N[C@@H]2[C@H]1[C@H]1C=C[C@@H]2C1 | 53.7 µM (inactive)
C=C1C(=O)O[C@H]2C[C@@H]1C(=O)CC(C)CCCC(C)=CCC[C@@]2(C)O (stereo partly drawn) | > 25 µM (inactive)
Cc1cc(C)nc(NS(=O)(=O)c2ccc(Nc3c4ccccc4nc4ccc(C(=O)Nc5ccc(S(N)(=O)=O)cc5)cc34)cc2)n1 | > 100 µM (inactive)
CCOC(=O)N1C/C(=C\c2ccccc2)C(=O)/C(=C/c2ccccc2)C1 | 2.17 µM (inactive)

The reported measurements were obtained from ChEMBL document CHEMBL1201862.
